Source listed as paper PMC7177833.

TARGET_OR_TEST_SYSTEM: CYP3A4 (Homo sapiens)
Construct: pooled human liver microsomes; tissue BioIVT; host or cells: pooled human liver microsomes
Sequence (P08684 whole entry): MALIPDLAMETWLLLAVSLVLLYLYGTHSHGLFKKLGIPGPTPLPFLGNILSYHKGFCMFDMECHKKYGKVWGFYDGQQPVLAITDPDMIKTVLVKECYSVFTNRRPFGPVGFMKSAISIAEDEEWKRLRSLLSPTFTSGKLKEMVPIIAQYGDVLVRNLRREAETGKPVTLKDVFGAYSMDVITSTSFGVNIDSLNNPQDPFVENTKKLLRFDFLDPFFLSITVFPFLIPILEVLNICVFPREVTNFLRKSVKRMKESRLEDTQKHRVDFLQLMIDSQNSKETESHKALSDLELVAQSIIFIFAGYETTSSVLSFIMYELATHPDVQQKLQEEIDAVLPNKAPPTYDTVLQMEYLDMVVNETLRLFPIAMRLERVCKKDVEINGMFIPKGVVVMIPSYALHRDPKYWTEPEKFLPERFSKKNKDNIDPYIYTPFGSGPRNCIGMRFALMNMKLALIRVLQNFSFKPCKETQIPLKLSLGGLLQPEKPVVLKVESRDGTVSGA
TEST_SUMMARY: CYP450 inhibition in HLM, atorvastatin, nifedipine and midazolam probes
Assay type: in vitro ADME
CONDITION_LABEL: nifedipine probe, read-out: IC50 CYP450 3A4-NIF
Field: IC50. Provide a value for each of the molecules that follow.

For this molecule ( CC(C)(C)OC(=O)/N=C(\NC(=O)OC(C)(C)C)Nc1cc(Cl)ccn1 ), measured IC50 is > 100 µM

For this molecule ( CC(C)(C)OC(=O)/N=C(\NC(=O)OC(C)(C)C)Nc1cc(C#N)ccn1 ), measured IC50 is > 100 µM

* * *

TARGET_OR_TEST_SYSTEM: MSPa (malate synthase G from P. aeruginosa) (Pseudomonas aeruginosa, UniProt Q9I636)
Sequence (Q9I636 whole entry): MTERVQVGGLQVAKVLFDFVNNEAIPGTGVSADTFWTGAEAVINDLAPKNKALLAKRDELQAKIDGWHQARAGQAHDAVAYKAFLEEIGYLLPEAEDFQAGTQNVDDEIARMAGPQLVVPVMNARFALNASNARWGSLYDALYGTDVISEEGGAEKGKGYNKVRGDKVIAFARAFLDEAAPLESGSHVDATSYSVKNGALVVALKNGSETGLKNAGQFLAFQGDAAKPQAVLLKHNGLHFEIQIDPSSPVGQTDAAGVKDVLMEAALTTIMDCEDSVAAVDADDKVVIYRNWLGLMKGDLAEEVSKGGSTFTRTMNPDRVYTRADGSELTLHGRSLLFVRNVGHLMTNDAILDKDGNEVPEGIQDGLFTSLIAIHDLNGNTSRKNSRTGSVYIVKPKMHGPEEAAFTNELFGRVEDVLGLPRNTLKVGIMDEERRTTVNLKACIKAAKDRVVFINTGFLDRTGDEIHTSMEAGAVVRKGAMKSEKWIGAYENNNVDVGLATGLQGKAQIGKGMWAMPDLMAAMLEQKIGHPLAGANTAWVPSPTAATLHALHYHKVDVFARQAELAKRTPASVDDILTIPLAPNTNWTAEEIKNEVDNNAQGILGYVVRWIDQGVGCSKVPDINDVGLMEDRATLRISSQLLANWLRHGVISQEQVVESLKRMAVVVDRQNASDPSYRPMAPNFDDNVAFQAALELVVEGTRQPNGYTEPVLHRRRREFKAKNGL
TEST_SUMMARY: Inhibition of purified MSPa enzymatic activity
Field: pIC50. Provide a value for each of the compounds that follow.
The quantity pIC50 is defined as the negative base-10 logarithm of the molar concentration.

Lab note: compound CC(C)(C)OC(=O)/N=C(\NC(=O)OC(C)(C)C)Nc1cc(Cl)ccn1 [SB002] tested on MSPa (malate synthase G from P. aeruginosa) (Pseudomonas aeruginosa, UniProt Q9I636); recorded pIC50 was 5.35

Lab note: compound CC(C)(C)OC(=O)/N=C(\NC(=O)OC(C)(C)C)Nc1cc(F)ccn1 [SB026] tested on MSPa (malate synthase G from P. aeruginosa) (Pseudomonas aeruginosa, UniProt Q9I636); recorded pIC50 was 4.23

Lab note: compound CC(C)(C)OC(=O)/N=C(\NC(=O)OC(C)(C)C)Nc1ccnc(Cl)c1 [SB032] tested on MSPa (malate synthase G from P. aeruginosa) (Pseudomonas aeruginosa, UniProt Q9I636); recorded pIC50 was 4.15

Lab note: compound CC(C)(C)OC(=O)/N=C(\NC(=O)OC(C)(C)C)Nc1cc(C#N)ccn1 [SB023] tested on MSPa (malate synthase G from P. aeruginosa) (Pseudomonas aeruginosa, UniProt Q9I636); recorded pIC50 was 4.84

* * *

TEST_SUMMARY: Metabolic stability in rat liver microsomes
Type: in vitro ADME
CONDITION_LABEL: rat, pooled rat liver microsomes, pH 7.4; RLM
MEASURED_PARAMETER: half-life at 0.5 µM (min)
Write it as a number; the unit min goes unstated.

For this compound ( CC(C)(C)OC(=O)/N=C(\NC(=O)OC(C)(C)C)Nc1cc(Cl)ccn1 ), measured half-life at 0.5 µM is 51

For this compound ( Nc1cc(Cl)ccn1 [Compound 2-AP, 2-amino-4-chloropyridine, reference compound] ), measured half-life at 0.5 µM is 220

For this compound ( CC(C)(C)OC(=O)/N=C(\NC(=O)OC(C)(C)C)Nc1cc(C#N)ccn1 ), measured half-life at 0.5 µM is 25.8

* * *

TEST_SUMMARY: Metabolic stability in human liver microsomes
Type: in vitro ADME
CONDITION_LABEL: human, pooled human liver microsomes, pH 7.4; HLM
MEASURED_PARAMETER: microsomal CLint at 0.5 µM (µL/min/mg)
Write it as a number; the unit µL/min/mg goes unstated.

For this compound ( Nc1cc(Cl)ccn1 [Compound 2-AP, 2-amino-4-chloropyridine, reference compound] ), measured microsomal CLint at 0.5 µM is 25.4

For this compound ( CC(C)(C)OC(=O)/N=C(\NC(=O)OC(C)(C)C)Nc1cc(Cl)ccn1 [SB002] ), measured microsomal CLint at 0.5 µM is 17.3

For this compound ( CC(C)(C)OC(=O)/N=C(\NC(=O)OC(C)(C)C)Nc1cc(C#N)ccn1 [SB023] ), measured microsomal CLint at 0.5 µM is 19.1

* * *

Field: MIC. Provide a value for each of the molecules that follow.
System: P. aeruginosa PAO1
TEST_SUMMARY: Antibacterial growth assay (OD600, 18 h) in LB or M9-acetate
Format: cell-based
CONDITION_LABEL: Pseudomonas aeruginosa, PAO1; M9 medium with 0.5% acetate; MIC = lowest concentration inhibiting >75% of growth; read-out: MIC M9ac
Write it as a number; the unit µM goes unstated.

For this molecule ( CC(C)(C)OC(=O)/N=C(\NC(=O)OC(C)(C)C)Nc1cc(C#N)ccn1 ), measured MIC is 13.5

For this molecule ( CC(C)(C)OC(=O)/N=C(\NC(=O)OC(C)(C)C)Nc1cc(Cl)ccn1 ), measured MIC is 1.6

For this molecule ( CC(C)(C)OC(=O)/N=C(\NC(=O)OC(C)(C)C)Nc1cc(F)ccn1 ), measured MIC is 70.9

* * *

Field: pIC50. Provide a value for each of the molecules that follow.
TARGET_OR_TEST_SYSTEM: ICLPa (isocitrate lyase from P. aeruginosa) (Pseudomonas aeruginosa)
Sequence (Q9I0K4 whole entry): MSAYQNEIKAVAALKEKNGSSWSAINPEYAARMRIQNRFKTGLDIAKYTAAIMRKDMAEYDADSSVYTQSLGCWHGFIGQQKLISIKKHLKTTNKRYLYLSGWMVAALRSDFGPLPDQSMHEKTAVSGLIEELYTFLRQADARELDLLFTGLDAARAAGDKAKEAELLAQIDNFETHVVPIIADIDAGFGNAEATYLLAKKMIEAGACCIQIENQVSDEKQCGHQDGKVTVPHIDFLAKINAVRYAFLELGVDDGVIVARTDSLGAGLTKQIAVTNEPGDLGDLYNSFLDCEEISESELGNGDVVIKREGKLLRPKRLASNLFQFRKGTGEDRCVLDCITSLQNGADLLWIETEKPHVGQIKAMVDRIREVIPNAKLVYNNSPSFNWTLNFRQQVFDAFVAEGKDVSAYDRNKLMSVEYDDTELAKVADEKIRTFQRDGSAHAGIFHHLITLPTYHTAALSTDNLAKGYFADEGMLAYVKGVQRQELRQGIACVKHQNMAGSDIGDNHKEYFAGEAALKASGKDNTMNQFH
TEST_SUMMARY: Inhibition of purified ICLPa enzymatic activity
CONDITION_LABEL: purified enzyme, 170 nM ICL
The quantity pIC50 is defined as the negative base-10 logarithm of the molar concentration.

For this molecule ( CC(C)(C)OC(=O)/N=C(\NC(=O)OC(C)(C)C)Nc1cc(Cl)ccn1 [SB002] ), measured pIC50 is 4.88

For this molecule ( C=C(CC(=O)O)C(=O)O [ITA, itaconate, reference compound] ), measured pIC50 is 4.60

For this molecule ( CC(C)(C)OC(=O)/N=C(\NC(=O)OC(C)(C)C)Nc1cc(C#N)ccn1 [SB023] ), measured pIC50 is 4.03

For this molecule ( CC(C)(C)OC(=O)/N=C(\NC(=O)OC(C)(C)C)Nc1ccnc(Cl)c1 [SB032] ), measured pIC50 is 4.04

For this molecule ( CC(C)(C)OC(=O)/N=C(\NC(=O)OC(C)(C)C)Nc1cc(F)ccn1 [SB026] ), measured pIC50 is 4.26

For this molecule ( COC(=O)c1ccnc(N/C(=N/C(=O)OC(C)(C)C)NC(=O)OC(C)(C)C)c1 [SB029] ), measured pIC50 is 4.19

* * *

TARGET_OR_TEST_SYSTEM: MSPa (malate synthase G from P. aeruginosa) (Pseudomonas aeruginosa)
TEST_SUMMARY: Inhibition of purified MSPa enzymatic activity
MEASURED_PARAMETER: IC50

For this molecule ( CC(C)(C)OC(=O)/N=C(\NC(=O)OC(C)(C)C)Nc1cc(Br)ccn1 ), measured IC50 is > 75 µM

For this molecule ( COC(=O)c1ccnc(N/C(=N/C(=O)OC(C)(C)C)NC(=O)OC(C)(C)C)c1 ), measured IC50 is > 75 µM

For this molecule ( Nc1cc(Cl)ccn1 [Compound 2-AP, 2-amino-4-chloropyridine, reference compound] ), measured IC50 is > 75 µM

For this molecule ( CC(C)(C)OC(=O)/N=C(\NC(=O)OC(C)(C)C)Nc1cc(C(F)(F)F)ccn1 ), measured IC50 is > 75 µM

* * *

Tested on: P. aeruginosa PAO1
TEST_SUMMARY: Antibacterial growth assay (OD600, 18 h) in LB or M9-acetate
Type: cell-based
CONDITION_LABEL: Pseudomonas aeruginosa, PAO1; M9 medium with 0.5% acetate; MIC = lowest concentration inhibiting >75% of growth; read-out: MIC M9ac
Field: MIC. Provide a value for each of the compounds that follow.

Lab note: compound Nc1cc(Cl)ccn1 [Compound 2-AP, 2-amino-4-chloropyridine, reference compound] tested on P. aeruginosa PAO1; recorded MIC was > 200 µM

Lab note: compound CC(C)(C)OC(=O)/N=C(\NC(=O)OC(C)(C)C)Nc1cc(C(F)(F)F)ccn1 tested on P. aeruginosa PAO1; recorded MIC was > 200 µM

Lab note: compound CC(C)(C)OC(=O)/N=C(\NC(=O)OC(C)(C)C)Nc1cc(Br)ccn1 tested on P. aeruginosa PAO1; recorded MIC was > 200 µM

Lab note: compound COC(=O)c1ccnc(N/C(=N/C(=O)OC(C)(C)C)NC(=O)OC(C)(C)C)c1 tested on P. aeruginosa PAO1; recorded MIC was > 78.9 µM

* * *

TARGET_OR_TEST_SYSTEM: ICLPa (isocitrate lyase from P. aeruginosa) (Pseudomonas aeruginosa)
TEST_SUMMARY: Inhibition of purified ICLPa enzymatic activity
CONDITION_LABEL: purified enzyme, 170 nM ICL
Field: IC50. Provide a value for each of the compounds that follow.

For this compound ( CC(C)(C)OC(=O)/N=C(\NC(=O)OC(C)(C)C)Nc1cc(C(F)(F)F)ccn1 ), measured IC50 is > 75 µM

For this compound ( CC(C)(C)OC(=O)/N=C(\NC(=O)OC(C)(C)C)Nc1cc(Br)ccn1 ), measured IC50 is > 75 µM

For this compound ( Nc1cc(Cl)ccn1 [Compound 2-AP, 2-amino-4-chloropyridine, reference compound] ), measured IC50 is > 75 µM
